System: Plasmodium falciparum RCS (Isolates from Brazil)
experimental details: In vitro antimalarial study, [3H]hypoxanthine uptake, RCS clone
Format: cell-based
experimental setup: P. falciparum RCS clone
Each entry below carries its recorded IC50 RCS.
Numbers only; they are read as ng/mL.

Check out these entries, answers already filled in.
CC(C)(C)OC(=O)N(C(=O)OC(C)(C)C)c1nc(N)nc2ccc3c(ccn3Cc3ccccc3C(F)(F)F)c12
5.2370
CC(C)(C)OC(=O)Nc1nc(N(C(=O)OC(C)(C)C)C(=O)OC(C)(C)C)c2c(ccc3c2ccn3Cc2ccccc2C(F)(F)F)n1
26.380

Shifting focus to the compound that follows.
-- ask Supply IC50 RCS measured with Plasmodium falciparum RCS (Isolates from Brazil) for `O=C1CCC(=O)N1c1nc(N2C(=O)CCC2=O)c2c(ccc3c2ccn3Cc2ccccc2C(F)(F)F)n1` .
-- reply 0.2571

###

Test system: Plasmodium falciparum W-2 clone (CDC Indochina III)
experimental details: In vitro antimalarial study, [3H]hypoxanthine uptake, W-2 clone
Type: cell-based
experimental setup: P. falciparum W-2 clone
parameter: IC50 W-2 (µg/mL)
Form entry: value (µg/mL) — number only.

// solved cases for IC50 W-2 follow
CCOC(=O)Nc1nc(NC(=O)OCC)c2c(ccc3c2ccn3Cc2ccccc2C(F)(F)F)n1
0.1278
O=C1CCC(=O)N1c1nc(N2C(=O)CCC2=O)c2c(ccc3c2ccn3Cc2ccccc2C(F)(F)F)n1
0.0001284
CC(C)(C)OC(=O)Nc1nc(N(C(=O)OC(C)(C)C)C(=O)OC(C)(C)C)c2c(ccc3c2ccn3Cc2ccccc2C(F)(F)F)n1
0.033569

Let us examine a further case.
-- ask Give IC50 W-2 for `CC(C)(C)OC(=O)N(C(=O)OC(C)(C)C)c1nc(N)nc2ccc3c(ccn3Cc3ccccc3C(F)(F)F)c12`
-- reply 0.0036678

###

System: Plasmodium falciparum RCS (Isolates from Brazil)
experimental details: In vitro antimalarial study, [3H]hypoxanthine uptake, RCS clone
Format: cell-based
experimental setup: P. falciparum RCS clone
parameter: IC50 RCS

CCOC(=O)Nc1nc(N(C(=O)OCC)C(=O)OCC)c2c(ccc3c2ccn3Cc2ccccc2C(F)(F)F)n1
>250 ng/mL
CCOC(=O)Nc1nc(N)nc2ccc3c(ccn3Cc3ccccc3C(F)(F)F)c12
>250 ng/mL

Kindly review the next compound as well.
-- ask Consider the compound `CCOC(=O)Nc1nc(NC(=O)OCC)c2c(ccc3c2ccn3Cc2ccccc2C(F)(F)F)n1` and give its recorded IC50 RCS.
-- reply >250 ng/mL

Reference for the values: patent US7253177B2
